Give measured amyloid nucleation score for each item. Keep answers brief.
# Test Protocol: amyloid nucleation score (Sup35N fusion, yeast selection) (log enrichment); library NNK1; higher = more nucleation; inactive = no reads after selection;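 also: zero at mode of non-aggregating sequences after 7 days selection at 30°C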
Number only, no unit.

Exercise: Recorded amyloid nucleation score of WTLCMPKCGWRQSFSLRSRR , please.
Key: -0.294

Exercise: Recorded amyloid nucleation score of HMLASNSRWNTAKGINWGFH , please.
Key: 0.758

Exercise: Recorded amyloid nucleation score of ILFMLECGMSTTSCHKIRVC , please.
Key: -0.157

Exercise: Recorded amyloid nucleation score of DASSKIRPSIGRMQKHWY , please.
Key: -0.513

Exercise: Recorded amyloid nucleation score of PNYHGVRGM , please.
Key: -0.086

Exercise: Recorded amyloid nucleation score of ATREQDFWWFDER , please.
Key: -1.48

Exercise: Recorded amyloid nucleation score of LSRLCGSRLLVRVVWRHYRG , please.
Key: -0.21

Exercise: Recorded amyloid nucleation score of DRYYAGF , please.
Key: 0.464

###

# Test Protocol: amyloid nucleation score (Sup35N fusion, yeast selection) (log enrichment); library NNK3; higher = more nucleation; inactive = no reads after selection
Measured Attribute: amyloid nucleation score

Example entries begin here.
• LKKYCMYMSSY = inactive
• DKGQRVNSSGRVCNMNMGYW = inactive
• SHYRDK = inactive
• TSKVGLACKTIYVERSFWYF = inactive
• ISMSCNYSW = inactive

Exercise: Recorded amyloid nucleation score of ITFLDWKLTTTG , please.
Key: inactive

Exercise: Recorded amyloid nucleation score of SCFGECCI , please.
Key: inactive

Exercise: Recorded amyloid nucleation score of INSDSSQFSYSSLGKVIGMY , please.
Key: inactive

Exercise: Recorded amyloid nucleation score of SYWPVRSELQSVLLNSCGVR , please.
Key: inactive

Exercise: Recorded amyloid nucleation score of VSGMDCSGGFASVESMASYR , please.
Key: inactive

Exercise: Recorded amyloid nucleation score of CNDGSHCLGYY , please.
Key: inactive

###

# Test Protocol: amyloid nucleation score (Sup35N fusion, yeast selection) (log enrichment); library NNK1; higher = more nucleation; inactive = no reads after selection
Measured Attribute: amyloid nucleation score

- ARHSYN: inactive
- PVGRCDQRDTRIHWGNYKVE: inactive
- LVGVWMDCLMKPKPIARTLP: inactive

###

# Test Protocol: amyloid nucleation score (Sup35N fusion, yeast selection) (log enrichment); library NNK1; higher = more nucleation; inactive = no reads after selection
Measured Attribute: amyloid nucleation score

• SGLFMWYGSQTPYNIMMKQK = inactive
• CRACRLRVIFNELMVGWVMF = inactive
• RNELTVFGLISPWESVFNLG = inactive

###

# Test Protocol: amyloid nucleation score (Sup35N fusion, yeast selection) (log enrichment); library NNK2; higher = more nucleation; inactive = no reads after selection
Measured Attribute: amyloid nucleation score

• FGKVRESCCLLAY = 0.489
• CVACLDM = inactive
• QFVNQRSYKGSLTFFMIRGR = inactive

###

# Test Protocol: amyloid nucleation score (Sup35N fusion, yeast selection) (log enrichment); library NNK3; higher = more nucleation; inactive = no reads after selection
Measured Attribute: amyloid nucleation score

Example entries begin here.
- YMSLVRTGKNTQMVVYRLVL: inactive
- VGCHLWEHWRSMQVR: inactive
- GLCSFR: inactive
- FFNIYLVRNSYQKTCAGLTR: 2.05

Exercise: Recorded amyloid nucleation score of YAFLLYY , please.
Key: inactive

Exercise: Recorded amyloid nucleation score of PTGGKKVGIASTFSLSVGTV , please.
Key: -0.08

Exercise: Recorded amyloid nucleation score of CSRIRLMGFDWLAPIPHA , please.
Key: inactive

###

# Test Protocol: amyloid nucleation score (Sup35N fusion, yeast selection) (log enrichment); library NNK2; higher = more nucleation; inactive = no reads after selection
Measured Attribute: amyloid nucleation score

* SDKGYCSTFNMRQALWDYGQ | 0.081
* ILLYNCCCEGWACKSWLGSH | inactive
* LWAFHLNFVLSAVCLRRKNL | inactive

###

# Test Protocol: amyloid nucleation score (Sup35N fusion, yeast selection) (log enrichment); library NNK2; higher = more nucleation; inactive = no reads after selection
Measured Attribute: amyloid nucleation score

* WMLNLDLLIFASLRGVVEGD | inactive
* IQGFGLKLVEIYWEARQLVH | inactive
* ARCMGFLSGGIHYRYLTAQM | inactive

###

# Test Protocol: amyloid nucleation score (Sup35N fusion, yeast selection) (log enrichment); library NNK1; higher = more nucleation; inactive = no reads after selection
Measured Attribute: amyloid nucleation score
Number only, no unit.

Exercise: Recorded amyloid nucleation score of NNDINFSDLFRCGERTYVFW , please.
Key: 2.24

Exercise: Recorded amyloid nucleation score of GFNDGVVR , please.
Key: 0.874

Exercise: Recorded amyloid nucleation score of ENLRHTLHKFITI , please.
Key: 0.262

Exercise: Recorded amyloid nucleation score of DWVVSCAYGFSSARNGGVCL , please.
Key: -0.039

Exercise: Recorded amyloid nucleation score of VLHEGCIMFKKLLLKALCRR , please.
Key: -0.128

Exercise: Recorded amyloid nucleation score of MGNTLITLIVGSGAL , please.
Key: 3.44

Exercise: Recorded amyloid nucleation score of EMVLLNATFYYAYCHSNRLR , please.
Key: 0.227

###

# Test Protocol: amyloid nucleation score (Sup35N fusion, yeast selection) (log enrichment); library NNK2; higher = more nucleation; inactive = no reads after selection
Binary call on amyloid nucleation score: fulfilled from 1 upward, not fulfilled beneath that.

Exercise: Given CLQVAKDADFCIKAVEERGW , state whether its amyloid nucleation score is at least 1.
Key: fulfilled

Exercise: Given GQYKTGVRGSRLNLPLMLTE , state whether its amyloid nucleation score is at least 1.
Key: not fulfilled

Exercise: Given VNVCWLKSATPNSCVDLVNI , state whether its amyloid nucleation score is at least 1.
Key: not fulfilled

Exercise: Given GRELRTVRNAGPFDQWVGVS , state whether its amyloid nucleation score is at least 1.
Key: fulfilled

Exercise: Given VRILYGS , state whether its amyloid nucleation score is at least 1.
Key: fulfilled

Exercise: Given LISWFWWENLKLCCSIFCFI , state whether its amyloid nucleation score is at least 1.
Key: fulfilled

Exercise: Given QNRKERYVYIFRAEWFPWCG , state whether its amyloid nucleation score is at least 1.
Key: not fulfilled

Exercise: Given HEPGFHYYCY , state whether its amyloid nucleation score is at least 1.
Key: fulfilled

Exercise: Given NNDGTPDPNM , state whether its amyloid nucleation score is at least 1.
Key: not fulfilled

Exercise: Given LSYNQD , state whether its amyloid nucleation score is at least 1.
Key: not fulfilled

Exercise: Given MCDLDDRKTTLSPWLRSSLG , state whether its amyloid nucleation score is at least 1.
Key: fulfilled

###

# Test Protocol: amyloid nucleation score (Sup35N fusion, yeast selection) (log enrichment); library NNK1; higher = more nucleation; inactive = no reads after selection
Binary call on amyloid nucleation score: satisfied from -0.03 upward, not satisfied beneath that.

Exercise: Given CICTRGMGSLSDCYELR , state whether its amyloid nucleation score is at least -0.03.
Key: satisfied

Exercise: Given PVAVVGILHPVFDRRPMRTV , state whether its amyloid nucleation score is at least -0.03.
Key: not satisfied

Exercise: Given LLPRGESHVKLKDRGSRMPW , state whether its amyloid nucleation score is at least -0.03.
Key: satisfied

Exercise: Given RADPYVYLMEGVCGPRWEPN , state whether its amyloid nucleation score is at least -0.03.
Key: satisfied

Exercise: Given SKCAVQCLVG , state whether its amyloid nucleation score is at least -0.03.
Key: satisfied

Exercise: Given LSEYYKAKGDRVTWPQFLTT , state whether its amyloid nucleation score is at least -0.03.
Key: not satisfied

Exercise: Given FFGCCSRGARIDHVSRNHLL , state whether its amyloid nucleation score is at least -0.03.
Key: satisfied

Exercise: Given LIQIDLF , state whether its amyloid nucleation score is at least -0.03.
Key: not satisfied

Exercise: Given YLCGHLMNTLYAILNVRRAL , state whether its amyloid nucleation score is at least -0.03.
Key: satisfied

Exercise: Given WFLCSSRFISLLQ , state whether its amyloid nucleation score is at least -0.03.
Key: not satisfied

Exercise: Given LGWIDSYTYHWDTIHRKQFR , state whether its amyloid nucleation score is at least -0.03.
Key: satisfied

Exercise: Given FGHYALRANILLTPITKGMS , state whether its amyloid nucleation score is at least -0.03.
Key: satisfied

Exercise: Given LTSSCQSSLKRKWGNIWHIR , state whether its amyloid nucleation score is at least -0.03.
Key: not satisfied

Exercise: Given AICKRRQLRVLSQALRLSLL , state whether its amyloid nucleation score is at least -0.03.
Key: satisfied

Exercise: Given FRKFSCCVGSLVSSSYVLDS , state whether its amyloid nucleation score is at least -0.03.
Key: satisfied

Hello, the source for this data is the supplement of paper PMC12042874, in case you need it.
